- Test system: M14
- MEASUREMENT_DESCRIPTION: NCI tumour cell line growth inhibition, 48 h
The source made the active and inactive calls. Rule as the data show it: active = GI50 up to about 1.1 µM and inactive = higher.
ENDPOINT_NAME: GI50

Solved cases (5 shown):
Cc1cc(S(=O)(=O)NC(=C(C#N)C#N)[n+]2ccc(N(C)C)cc2)c([S-])cc1Cl : > 100 µM (inactive)
COc1ccc(/C(Cl)=C(\C=O)c2ccc(Br)cc2)cc1OC : > 100 µM (inactive)
COc1ccc(CNc2cnc3cc(N)ccc3n2)cc1OC : > 100 µM (inactive)
C[C@]12CC[C@@H]3c4ccc(OS(N)(=O)=O)cc4CC[C@H]3[C@@H]1CCC2=O [EMATE] : 38.9 µM (inactive)
OCCCSc1ccccc1SCCCO : > 100 µM (inactive)

Fill blank: measured GI50 of the molecule Cc1ccc(O)c(/N=N/c2ccc(S(=O)(=O)O)cc2)n1 is ____.
> 100 µM (inactive)

For the molecule CC(=O)O[C@H]1C[C@H]2[C@@H]([C@H](OC(C)=O)C[C@@H]3CC4(CC[C@@]32C)OOC2(CCCCC2)OO4)[C@@H]2CC[C@H]([C@H](C)CCC(N)=O)[C@@]12C , what GI50 is on record?
3.33 µM (inactive)

// GI50 lookup, key: COC(=O)[C@H](COC(=O)/C=C/c1ccc(OC(C)=O)c(OC(C)=O)c1)NC(=O)/C=C/c1ccc(OC(C)=O)c(OC(C)=O)c1
21.2 µM (inactive)

Look up GI50 for this molecule: Cc1cc(/N=C/c2ccc(Cl)cc2)n(-c2ccccc2)n1
48.6 µM (inactive)

###

- System: MDA-MB-435
- MEASUREMENT_DESCRIPTION: NCI tumour cell line growth inhibition, 48 h
Active and inactive are the calls of the source. Rule as the data show it: active = GI50 up to about 1.1 µM and inactive = higher.
ENDPOINT_NAME: GI50

Here are 3 molecules together with their reported answers.
COc1cc2c(SCCN(C)C)nc3ccccc3c2c2ccccc12 : 1.96 µM (inactive)
O=C(O)COc1cc(-c2ccccc2)nc2ccc(F)cc12 : > 100 µM (inactive)
Cc1nc(-c2ccc(Cl)cc2)cn2c1nc1ccccc12 : > 100 µM (inactive)

Param item = CCOC(=O)C(=NN(C)c1ncccc1N)C(=O)OCC ; retrieve measured GI50.
19.3 µM (inactive)

Consider the molecule Nc1nc(O)c2c(n1)NCN(CCCN1CCOCC1)C2 and give its measured GI50.
> 100 µM (inactive)

What GI50 value was documented for this molecule, CCN(CC)CCn1c(=O)c2cccnc2n2c3c(=O)n(C)c(=O)n(C)c3nc12 ?
> 100 µM (inactive)

###

- Test system: DU-145
- MEASUREMENT_DESCRIPTION: NCI tumour cell line growth inhibition, 48 h
Active and inactive are the calls of the source. Rule as the data show it: active = GI50 up to about 1.1 µM and inactive = higher.
Recorded GI50 for the following compounds

Below, each entry is followed by its recorded GI50 result.
CCOc1cc(-c2nc3ccccn3c2/N=C/c2cc(Br)ccc2O)ccc1O : 12.5 µM (inactive)
CCOc1ccc2nc(NC(NC(=O)c3cccnc3)(C(F)(F)F)C(F)(F)F)sc2c1 : 35.7 µM (inactive)
COC(=O)c1ccc2n1C1CC3CC(CC2C3)C1 : > 100 µM (inactive)
CN1CN(c2ccccc2)C2(CCN(Cc3csc4ccccc34)CC2)C1=O : 49.2 µM (inactive)
O=C(Nc1ccc(Cl)cc1)[C-](C(=O)c1ccc(Br)cc1)[n+]1cccc(-c2ccc(Cl)cc2)n1 : 5.45 µM (inactive)
CN(C)c1ccc(Cc2cc3c(O)ccc(O)c3cc(Cc3ccc(N(C)C)cc3)c2=O)cc1 : 26.9 µM (inactive)
COC(=O)Nc1nc2cc(NC(=O)c3ccc(I)cc3)ccc2[nH]1 : > 100 µM (inactive)
COc1ccc(/N=N/C(=N\c2ccc(Cl)cc2)c2ccc(N(CCC#N)CCC#N)cc2)cc1 : 20 µM (inactive)

Consider now this further compound.
Any idea what its GI50 is? The compound is CC(=O)NC1C(OCc2ccccc2)OC(CO)C(O)C1OCC(=O)NC(C)C(=O)NC(CCC(=O)Nc1ccc2c(c1)CN1C(=O)c3ccccc3C1=N2)C(N)=O (centres undefined)
> 100 µM (inactive)
